# TGT: T7 enzyme (Escherichia phage T7, UniProt P00573)
# Sequence (P00573 whole entry): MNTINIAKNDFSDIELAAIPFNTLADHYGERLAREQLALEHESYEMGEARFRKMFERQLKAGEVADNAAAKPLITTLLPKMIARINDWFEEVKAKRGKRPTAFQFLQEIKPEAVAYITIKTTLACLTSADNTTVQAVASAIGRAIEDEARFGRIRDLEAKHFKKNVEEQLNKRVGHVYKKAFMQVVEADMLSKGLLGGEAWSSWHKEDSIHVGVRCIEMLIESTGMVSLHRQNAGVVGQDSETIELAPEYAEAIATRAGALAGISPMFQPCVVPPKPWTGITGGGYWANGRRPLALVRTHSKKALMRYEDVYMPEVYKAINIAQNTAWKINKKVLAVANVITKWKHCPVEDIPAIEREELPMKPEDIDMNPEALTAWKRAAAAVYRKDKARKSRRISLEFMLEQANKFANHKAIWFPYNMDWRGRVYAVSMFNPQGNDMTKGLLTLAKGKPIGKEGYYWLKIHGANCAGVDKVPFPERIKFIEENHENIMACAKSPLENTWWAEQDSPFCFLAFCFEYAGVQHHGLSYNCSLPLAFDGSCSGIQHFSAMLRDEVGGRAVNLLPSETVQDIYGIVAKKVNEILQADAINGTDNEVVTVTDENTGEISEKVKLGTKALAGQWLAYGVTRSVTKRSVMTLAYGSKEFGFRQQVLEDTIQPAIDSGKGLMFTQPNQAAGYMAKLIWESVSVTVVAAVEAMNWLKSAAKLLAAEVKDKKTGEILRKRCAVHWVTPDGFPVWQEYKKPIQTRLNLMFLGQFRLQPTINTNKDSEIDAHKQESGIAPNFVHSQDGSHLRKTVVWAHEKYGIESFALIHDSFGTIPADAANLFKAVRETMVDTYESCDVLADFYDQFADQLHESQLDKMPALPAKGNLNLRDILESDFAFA
# METHOD NOTES: Evaluation of mRNA yield by in vitro transcription (IVT) with cap analogs
# Type: biochemical
# MEASUREMENT CONDITIONS: input DNA 5 μg
ENDPOINT: mRNA (µg)
Please give a number only; it is taken to be in µg.

Past entries and their recorded results:
>  <MOLECULE>
CO[C@@H]1C2OC[C@]1(COP(=O)(O)OP(=O)(O)OP(=O)(O)OC[C@H]1O[C@@H](n3cnc4c(N)ncnc43)[C@@H](OC)C1OP(=O)(O)OC[C@H]1O[C@@H](n3cnc4c(=O)[nH]c(N)nc43)[C@@H](O)C1O)O[C@H]2n1c[n+](C)c2c(=O)[nH]c(N)nc21 (stereo partly shown)

>  <ENDPOINT>
mRNA

>  <RESULT UNITS>
µg

>  <MEAS VALUE>
134

$$$$
>  <MOLECULE>
CO[C@@H]1C(O)[C@H](n2c[n+](C)c3c(=O)[nH]c(N)nc32)O[C@@H]1COP(=O)(O)OP(=O)(O)OP(=O)(O)OC[C@]12CN(C)[C@@H](C1OP(=O)(O)OC[C@H]1O[C@@H](n3cnc4c(=O)[nH]c(N)nc43)[C@@H](O)C1O)[C@H](n1cnc3c(N)ncnc31)O2 (stereo partly shown)

>  <ENDPOINT>
mRNA

>  <RESULT UNITS>
µg

>  <MEAS VALUE>
167

$$$$
>  <MOLECULE>
CNc1ncnc2c1ncn2[C@@H]1O[C@H](COP(=O)(O)OP(=O)(O)OP(=O)(O)OC[C@@]23CN(S(C)(=O)=O)C([C@H](n4c[n+](C)c5c(=O)[nH]c(N)nc54)O2)[C@H]3OC)C(OP(=O)(O)OC[C@H]2O[C@@H](n3cnc4c(=O)[nH]c(N)nc43)[C@@H](O)C2O)[C@@H]1OC (stereo partly shown)

>  <ENDPOINT>
mRNA

>  <RESULT UNITS>
µg

>  <MEAS VALUE>
138

$$$$

Challenge: // fetch mRNA given entry COC1[C@@H](COP(=O)(O)OP(=O)(O)OP(=O)(O)OC[C@]23CN(S(C)(=O)=O)[C@@H](C2OP(=O)(O)OC[C@H]2O[C@@H](n4cnc5c(=O)[nH]c(N)nc54)[C@@H](O)C2O)[C@H](n2cnc4c(N)ncnc42)O3)O[C@@H](n2c[n+](C)c3c(=O)[nH]c(N)nc32)[C@H]1O (stereo partly shown)
Response given: 95
